Every entry's value here was drawn from patent US9238039B2.

- Tested on: RSV strain A2
- TEST PROTOCOL: RSV antiviral cytoprotection assay in Hep2 cells (96-well and 384-well format, Cell TiterGlo read-out)
- Assay type: cell-based, Respiratory Syncytial Virus (RSV)
- REPORTED CONDITIONS: human respiratory syncytial virus, HEp-2, 0.5 uM; RSV-induced cytopathic effect in Hep2 cells; calculated from fitted dose response curve, normalized to 0% and 100%
Reported values of inhibition at 0.5 µM for individual entries
Return type: number; implicit unit %.

Inquiry: Give the observed inhibition at 0.5 µM of Cc1cn2nc([C@@H]3CCCCN3C(=O)c3cc(Cl)ccc3NC(=O)C3CC3)cc2nc1N1CC[C@H](N)C1 [Compound 219] for RSV strain A2.
Reply text: 100

Inquiry: Give the observed inhibition at 0.5 µM of Cc1cn2nc([C@@H]3CCCCN3C(=O)c3cc(Cl)ccc3NS(C)(=O)=O)cc2nc1N1CC(C)C1 [Compound 129] for RSV strain A2.
Reply text: 100

Inquiry: Give the observed inhibition at 0.5 µM of Cc1cn2nc([C@@H]3CCCCN3C(=O)c3ccc(Cl)c(O)c3)cc2nc1N1CC[C@H](N)C1 [Compound 340] for RSV strain A2.
Reply text: 100
